assay: gradient 5% acetonitrile 3 min, to 50% in 2 min, to 85% in 15 min, held 3 min, 100 µL/min; settings: column: Zorbax Extend-C18 2.1 x 50 mm; eluents: water / acetonitrile, 0.1% formic acid
measure: RP-LC retention time (s)

[[record]]
compound = "CC(=O)N1c2ccc(S(=O)(=O)N3CCCCC3)cc2CC1C(=O)NCCc1ccc(C)cc1 (stereo not given)"
reading = 941

[[record]]
compound = "CC1CCN(c2ncc3c(n2)CCC(C(=O)NCc2ccc(N4CCOCC4)cc2)C3)CC1 (stereo not given)"
reading = 715

[[record]]
compound = "O=C(CCn1cnc2cc(-c3noc(-c4ccc(Br)o4)n3)ccc21)N1CCCCC1"
reading = 796

[[record]]
compound = "O=S(=O)(c1cccn2c(SCc3ccc(F)cc3)nnc12)N1CCc2ccccc2C1"
reading = 944

[[record]]
compound = "CN(CC1CCOC1)C(=O)Nc1ccc(C(F)(F)F)cc1 (stereo not given)"
reading = 783


* * *

assay: gradient 5% acetonitrile 3 min, to 50% in 2 min, to 85% in 15 min, held 3 min, 100 µL/min; conditions: column: Zorbax Extend-C18 2.1 x 50 mm; eluents: water / acetonitrile, 0.1% formic acid
// boundary case: RP-LC retention time equal to 800 s maps to Not fulfilled; strictly smaller maps to Fulfilled

[[record]]
smilesrepr = "Cc1nc(CC(=O)Nc2ccc(F)cc2C)cs1"
classification = "Fulfilled"

[[record]]
smilesrepr = "O=C(Nc1nnc(Cc2ccccc2)s1)C1CCN(C(=O)c2ccccc2)CC1"
classification = "Fulfilled"

[[record]]
smilesrepr = "CCn1cnc2cc(CNC(=O)c3cc(C)cc(C)c3)ccc21"
classification = "Fulfilled"

[[record]]
smilesrepr = "O=C1CCCc2cc(S(=O)(=O)N3CCC(C(=O)NCc4ccco4)CC3)ccc2N1"
classification = "Fulfilled"

[[record]]
smilesrepr = "Cc1[nH]c(C(=O)Nc2cccc(Cl)c2)c(C)c1S(=O)(=O)N1CCCC1"
classification = "Not fulfilled"

[[record]]
smilesrepr = "O=C(c1cc2ccccc2[nH]1)N1CCN(Cc2nc3ccccc3[nH]2)CC1"
classification = "Fulfilled"

[[record]]
smilesrepr = "Cn1cc(-c2nc(C(=O)NCc3cccc(C(F)(F)F)c3)cs2)c2cccnc21"
classification = "Not fulfilled"

[[record]]
smilesrepr = "N#CCSc1nnc2n(CCC(=O)NC3CCCCC3)c(=O)c3ccccc3n12"
classification = "Fulfilled"

[[record]]
smilesrepr = "COc1ccc(CNC(=O)c2csc(-c3cn(C)c4ncccc34)n2)cc1"
classification = "Not fulfilled"


* * *

assay: gradient 5% acetonitrile 3 min, to 50% in 2 min, to 85% in 15 min, held 3 min, 100 µL/min; conditions: column: Zorbax Extend-C18 2.1 x 50 mm; eluents: water / acetonitrile, 0.1% formic acid
measure: RP-LC retention time (s)

[[record]]
compound = "COc1cc(Cl)c(NC(=O)C(=O)c2ccc[nH]2)c(OC)c1"
reading = 969

[[record]]
compound = "O=C(c1ccc(OCC2CCCN(C(=O)c3ccoc3)C2)cc1)N1CCOCC1 (stereo not given)"
reading = 690

[[record]]
compound = "O=C(NCCCc1ccccc1)C1CCN(C(=O)c2ncn3c2COC(c2ccc(F)cc2)C3)CC1 (stereo not given)"
reading = 818

[[record]]
compound = "CCOc1ccccc1NC(=O)c1ccc(=O)n(Cc2ccccc2)n1"
reading = 980

[[record]]
compound = "CC1Oc2ccc(S(=O)(=O)N3CCC(C(=O)NC4CCCCCCC4)CC3)cc2NC1=O (stereo not given)"
reading = 907

[[record]]
compound = "Cc1c(-c2noc(-c3cccc(F)c3)n2)nnn1-c1ccc(F)cc1"
reading = 1100

[[record]]
compound = "O=C(O)CSc1c(-c2ccccc2)c2cc(Cl)ccc2[nH]c1=O"
reading = 806

[[record]]
compound = "Cc1cccc(OCc2nc(CCN(C)C(=O)NCc3ccccc3)no2)c1"
reading = 832

[[record]]
compound = "CN(C)c1cccc(C(=O)Nc2cnn(-c3ncc(N4CCCC4)cn3)c2)c1"
reading = 749

[[record]]
compound = "O=C(NCCN1CCOCC1)c1nc2ccccn2c1-c1ccc(F)cc1"
reading = 616

